TARGET: Mitogen-activated protein kinase 1 (Homo sapiens)
ASSAY_PROTOCOL: Inhibition of human ERK2 assessed as residual activity at 5 uM relative to control
READOUT_NAME: Activity (%)
Field format: number, assumed %, no unit text.

See these solved cases before continuing.
{"COMPOUND": "Cc1ccc(S(=O)(=O)N2CC(CCn3cnc4c(Cl)nc(Cl)nc43)Oc3cc(Cl)ccc32)cc1 (stereo not given)", "READOUT_NAME": "Activity", "QUANTITATIVE_RESULT": 93}
{"COMPOUND": "Cc1ccc(S(=O)(=O)N2CC(CCn3cnc4c(Cl)nc(Cl)nc43)Oc3ccc(Br)cc32)cc1 (stereo not given)", "READOUT_NAME": "Activity", "QUANTITATIVE_RESULT": 86}
{"COMPOUND": "Cc1ccc(S(=O)(=O)N2CC(CCn3cnc4c(Br)ncnc43)Oc3ccc(C)cc32)cc1 (stereo not given)", "READOUT_NAME": "Activity", "QUANTITATIVE_RESULT": 81}
{"COMPOUND": "Cc1ccc(S(=O)(=O)N2CC(CCn3cnc4c(Br)ncnc43)Oc3cc(Cl)ccc32)cc1 (stereo not given)", "READOUT_NAME": "Activity", "QUANTITATIVE_RESULT": 90}

Switching to the query record.
-- ask Notebook entry, Mitogen-activated protein kinase 1 (Homo sapiens) assay: Activity of Cc1ccc(S(=O)(=O)N2CC(CCn3cnc4c(Cl)nc(Cl)nc43)Oc3ccc(C)cc32)cc1 (stereo not given) = ?
-- reply 88

Recorded values, source ChEMBL document CHEMBL6071131.
